In this section, each of the compounds is paired with its reported TGI.
System: CAKI-1 renal
Assay: NCI tumour cell line growth inhibition, 48 h

> print(dat)
                                   compound  test.readout  recorded.measurement
1  CCOC(=O)C(=O)/C=C(\C)Nc1c(NC2OCC(OC(C)=O)C(OC(C)=O)C2OC(C)=O)nc(SC)[nH]c1=O (stereo unspecified)           TGI              > 100 µM

Now for the compound whose TGI we want.
According to the records, this compound Cn1cc(NC(=O)c2cc(NC(=O)c3cc(NC=O)cn3C)cn2C)cc1C(=O)NCCC(=N)N displays TGI of > 100 µM
